# experiment: Ex-vivo stability in mouse whole blood
# Assay type: in vitro ADME
# applied_conditions: male, C57BL/6, mouse
metric: half-life (min)
Write the answer as a number in min, unit excluded.

*Q* So what's the measured half-life for this one? H-RPPGFSPFR-OH [Bradykinin (BK), Bradykinin]
*A* 3.9
